System: Geobacillus stearothermophilus
Assay: Activity of Bacillus stearothermophilus alpha-glucosidase assessed as production of p-nitrophenol using p-nitrophenyl-alpha-D-glucopyranoside as substrate at 50 mM after 3 mins by spectrophotometer
Activity calls are given as the source filed them. No cut-off for these calls is given here.
Your response should consist of one outcome taken from active, inactive

What is the recorded call for this molecule in the test? C[N+](C)(C)CCCC(=O)[O-]
inactive

Can you look up the reported call for C[N+](C)(C)CCCCCC(=O)[O-] for me?
inactive

Call for entry OC[C@@H](O)[C@@H](O)[C@H](O)[C@@H](O)CO :
inactive

Any idea what this test logged for CCC[N+](CCC)(CCC)CC(=O)[O-] ?
active

Given CCCC[N+](CCCC)(CCCC)CC(=O)[O-] , state the outcome it received in this test.
active

Short answer needed: outcome of this test for O[C@H]1[C@H](O)[C@@H](O)[C@H](O)[C@@H](O)[C@H]1O ?
inactive

Just curious, what result did CC[N+](CC)(CC)CC(=O)[O-] get here?
active

For this molecule, state the assay outcome: C[N+]1(CC(=O)[O-])CCOCC1
active

# fetch the recorded call for OCC(O)CO here
inactive

// param item: C[N+]1(CC(=O)[O-])CCCCC1 ; yields the recorded call
active

What classification did C[N+](C)(C)CC(=O)O end up with in this test?
inactive

// outcome(item) with item = C[N+](C)(CC[N+](C)(C)CC(=O)[O-])CC(=O)[O-]
inactive

====

Test system: Saccharomyces cerevisiae
Assay: Activity of Saccharomyces cerevisiae alpha-glucosidase assessed as production of p-nitrophenol using p-nitrophenyl-alpha-D-glucopyranoside as substrate at 50 mM after 3 mins by spectrophotometer
Activity calls are given as the source filed them. No cut-off for these calls is given here.
Bench note: report the call from true (active), false (inactive)

// return assay outcome for OCC(O)CO
false

Hi, sorry to bother you, what did the test record for C[N+](C)(C)CC(=O)O ?
false

Which outcome did this test record for the molecule CCCC[N+](CCCC)(CCCC)CC(=O)[O-] ?
true

Record lookup: outcome of this test for C[N+](C)(CC[N+](C)(C)CC(=O)[O-])CC(=O)[O-] ?
false

Hello, I am checking results. What call was entered for O[C@H]1[C@H](O)[C@@H](O)[C@H](O)[C@@H](O)[C@H]1O ?
false

Fill in: this test's call for C[N+]1(CC(=O)[O-])CCOCC1 is ___
false

For CC[N+](CC)(CC)CC(=O)[O-] , which call appears in the assay record?
false

# outcome recorded in this test, key = OC[C@@H](O)[C@@H](O)[C@H](O)[C@@H](O)CO
false

Answer briefly: the call reported for CCC[N+](CCC)(CCC)CC(=O)[O-] in this assay.
true

Look up the recorded call for C[N+]1(CC(=O)[O-])CCCCC1 in this test.
false

Status in this test for C[N+](C)(C)CCCC(=O)[O-] ?
false

Field: outcome | Entry: C[N+](C)(C)CCCCCC(=O)[O-]
false
